Overview of recorded responders at 50 mg/kg for various compounds
Test system: OF1 mice
Experiment: Maximal electroshock test (MES Test)
Type: in vivo
Conditions: Mus musculus, po; 50 mg/kg, p.o., pre-treatment time −1 h; read-out: %-Protection
Description: Compounds of the invention were tested in OF1 mice using the maximal electroshock test (MES Test) described in detail by Schmutz et al., Naunyn-Schmiedeberg's Arch Pharmacol 1990, 342, 61-66. […] Five mice were used for each treatment condition and the percentage of protected mice was used as readout (i.e. a compound could give 0%, 20%, 40%, 60%, 80% or 100% protection). […]
Reply numerically in %, unit not repeated.

Example entries begin here.
CCOC(=O)CCC(=O)N(n1c(=O)[nH]c2cc(C(F)(F)F)c(-n3ccnc3)cc2c1=O)S(C)(=O)=O : 20
CCOC(=O)N(n1c(=O)[nH]c2cc(C(F)(F)F)c([C@H]3CCCO3)cc2c1=O)S(C)(=O)=O : 40
CCCCOC(=O)N(n1c(=O)[nH]c2cc(C(F)(F)F)c(C(CC)OC)cc2c1=O)S(C)(=O)=O (stereo not drawn) : 60

# query: responders at 50 mg/kg of entry "Cn1nccc1-c1cc2c(=O)n(NS(C)(=O)=O)c(=O)[nH]c2cc1C(F)(F)F"
20

If you can, please state the reported responders at 50 mg/kg value of "COCCOCCOCC(=O)N(n1c(=O)[nH]c2cc(C(C)C)c(-c3ccnn3C)cc2c1=O)S(C)(=O)=O" .
100

What does the data say about its responders at 50 mg/kg? Entry: CCC(OC)c1cc2c(=O)n(N(C(=O)OC)S(C)(=O)=O)c(=O)[nH]c2cc1C(F)(F)F (stereo not drawn)
80

Please give the measured responders at 50 mg/kg for this compound: "CC(=O)N(n1c(=O)[nH]c2cc(C(F)F)c(-c3ccnn3C(C)C)cc2c1=O)S(C)(=O)=O"
40

What measured responders at 50 mg/kg goes with "CCOC(=O)N(n1c(=O)[nH]c2cc(C(F)(F)F)c(-n3ccnc3C)cc2c1=O)S(C)(=O)=O" ?
40

Can you look up the measured responders at 50 mg/kg of "CCOC(=O)CC(=O)N(n1c(=O)[nH]c2cc(C(F)(F)F)c(-c3ccnn3C(C)C)cc2c1=O)S(C)(=O)=O" for me?
40

# lookup: responders at 50 mg/kg of CCCCC(=O)N(n1c(=O)[nH]c2cc(C(F)(F)F)c(C(O)CC)cc2c1=O)S(C)(=O)=O (stereo not drawn)
40

Endpoint output: responders at 50 mg/kg of "CCOC(=O)CCCC(=O)N(n1c(=O)[nH]c2cc(C(F)(F)F)c(-c3ccnn3C(C)C)cc2c1=O)S(C)(=O)=O" . Value?
40
